EC50 for assorted compounds
Experiment: ST_JUDE: Cytotoxicity using luciferase to measure ATP as an indicator of the viability of human Burkitt''s lymphoma lymphoblast cells (Raji)
Format: toxicity, cell-based

Reference set, count: 9
compound | EC50
CCCO/C(O)=C1\C(C)=NC2=C(C(=O)CC(c3ccc(OC)c(OC)c3)C2)C1c1ccccc1C (stereo not given) | > 41.3 µM
CCOc1ccc(/C=C2\Oc3c(ccc(O)c3CN3CCCCC3)C2=O)cc1 | > 47.1 µM
O=C(c1ccccc1)N1CCN(c2ccccc2NC(=O)C(Cl)(Cl)Cl)CC1 | > 33.7 µM
CC(C)CN1C(=O)c2ccccc2C(C(=O)Nc2cccc(C(F)(F)F)c2)C1c1cccs1 (stereo not given) | > 47.2 µM
CC(C)c1ccc(S(=O)(=O)NC2=C/C(=N\c3ccc(O)cc3)C(=O)c3ccccc32)cc1 | 3.02 µM
CCCN(C(=O)C(=O)Nc1ccc2nc3n(c(=O)c2c1)CCCCC3)c1ccc(OCC)cc1 | > 47.3 µM
C#CC[n+]1ccn2c(C)ccc2c1CC | 40.7 µM
CCCO/C(O)=C1\C(C)=NC2=C(C(=O)CC(c3ccc(OC)c(OC)c3)C2)C1c1cccc(C)c1 (stereo not given) | > 44.3 µM
c1ccc(CCNc2ccnc3cc4ccccc4cc23)cc1 | 9.53 µM

Would you kindly look at the next entry?
Measured EC50 of CCN(CC)CCn1c(=N)n(CC(O)c2ccc(Cl)c(Cl)c2)c2ccccc21 (stereo not given) : > 43.1 µM

###

Assay: ST_JUDE: Cytotoxicity using luciferase to measure ATP as an indicator of the viability of human Burkitt''s lymphoma lymphoblast cells (Raji)
Type: toxicity, cell-based
assayMetric: EC50

Measured EC50 of `Oc1ccc(Br)cc1CN1CCN(Cc2cccc(F)c2)CC1` : > 31.8 µM

Measured EC50 of CO/C(O)=C1\C(C)=NC2=C(C(=O)CC(c3ccc(OC)c(OC)c3)C2)C1c1ccccc1C (stereo not given) : > 41.4 µM

Measured EC50 of CC(C)(C)NC(=O)c1cn(C2CCCCC2)cc(C(=O)NC2CCN(Cc3ccccc3)C2)c1=O (stereo not given) : > 28.7 µM

Measured EC50 of `Cc1ccc(C)c(N2CCN(Cc3cc(Cl)ccc3O)CC2)c1` : > 35.9 µM

Measured EC50 of `COc1ccccc1/N=C1\C=C(NS(=O)(=O)c2ccc(C(C)C)cc2)c2ccccc2C1=O` : > 34.5 µM

Measured EC50 of CC(C)c1ccc(CNCC(O)c2ccccc2)cc1 (stereo not given) : 23.2 µM

Measured EC50 of `C=CC[n+]1c(C=C2C=CN(CC)C=C2)sc2ccccc21` : 1.24 µM

Measured EC50 of `CC(C)(C)C(=O)N1CCN(c2ccc([N+](=O)[O-])c(NC3CC3)c2)CC1` : > 43.4 µM

Measured EC50 of CCOc1cc(C2CC(=O)NC3=C2C(=O)CC(c2cc(OC)ccc2OC)C3)ccc1O (stereo not given) : > 40.9 µM

Measured EC50 of CCCCN(CCCC)CC(O)COc1ccccc1C(=O)Nc1ccccc1 (stereo not given) : > 53.2 µM

###

System: Plasmodium falciparum
Experiment: ST_JUDE: Plasmodium falciparum K1 EC50 (uM) as measured by SYBR green dye
Type: functional, organism-based
assayMetric: pEC50
pEC50 is a log-scale quantity: -log10 of the concentration expressed in molar.

Reference set, count: 4
compound | pEC50
O=[N+]([O-])c1ccc2c(c1)c1ccccc1n2Cc1ccccc1O | 5.90
O=C(CC1N=C2c3ccccc3N=C(SCc3ccc(F)cc3)N2C1=O)NCc1ccco1 (configuration not stated) | 5.24
CCOc1cc(O)c(-c2[nH]nc(C)c2Oc2ccc(F)cc2)cc1CC | 5.45
Cc1c(C(=O)NCCCn2ccnc2)sc2nc(-c3cccc([N+](=O)[O-])c3)cn12 | 5.04

Measured pEC50 of `CC(C)(O)C#Cc1ccc([C@@H]2C[C@H]3CN(Cc4cccc(Cl)c4)C(=O)[C@]34CCCN24)cc1` : 5.24

Measured pEC50 of `CCCCCOc1ccc(NC2=C(N3CCCC3)C(=O)c3ccccc3C2=O)cc1` : 5.72

Measured pEC50 of `COc1ccc(C(C)(C)C)cc1S(=O)(=O)Nc1ccc(Nc2nc(C)cc(N(C)C)n2)cc1` : 5.88

Measured pEC50 of `O=C(O)c1cccc(NC2=C(n3nnc4ccccc43)C(=O)c3ccccc3C2=O)c1` : 5.38

Measured pEC50 of `O=C(Nc1ccc(Cl)cc1)Nc1ccc(F)c(Cl)c1` : 5.45

Measured pEC50 of `Cc1c(C=O)c2ccccc2n1CC(=O)Nc1ccc(Br)c(Cl)c1` : 6.05

Measured pEC50 of CCCC(=O)NC(c1ccc(Cl)cc1Cl)c1ccc2cccnc2c1O (configuration not stated) : 5.45

Measured pEC50 of `CC[n+]1c(C=C2C=CN(C)C=C2)ccc2cc(C)ccc21` : 6.33
